Parameter Activity: see the listing below.
Tested on: Plasmodium falciparum
protocol-text: Inhibition of N-terminally truncated Plasmodium falciparum SUMO-tagged DHODH (159 to 569 residues) expressed in Escherichia coli BL21(DE3) assessed as residual activity at 50 uM using L-dihydroorotate as substrate by DCIP-based colorimetric assay relative to control
Answer with a number only, understood to be in %.

Please review the following examples before continuing.
compound | observed-measurement
Cc1cc(Nc2ccc(Cl)cc2)n2nc(C)cc2n1 | 74
Cc1cc(Nc2ccc(C(F)(F)F)cc2)n2nc(C(F)(F)F)cc2n1 | 33
CCN(CC)Cc1cc(Nc2ccnc3cc(Cl)ccc23)ccc1O [AMODIAQUINE] | 79
Cc1cc(Nc2ccc(C(F)(F)F)cc2)n2nc(C)cc2n1 | 34.3
COc1cc(Nc2cc(C(F)(F)F)nc3cc(C)nn23)cc(OC)c1 | 77
Cc1cc(Nc2ccccc2)n2nc(C(F)(F)F)cc2n1 | 88

(Q) Look at this compound and give its reported Activity. COc1cc(Nc2cc(C)nc3cc(C(F)(F)F)nn23)cc(OC)c1
(A) 57

(Q) Look at this compound and give its reported Activity. Cc1cc(Nc2ccc3ccccc3c2)n2nc(C(F)(F)F)cc2n1
(A) 67.5

(Q) Look at this compound and give its reported Activity. Cc1cc(Nc2ccc3ccccc3c2)n2nc(C)cc2n1
(A) 41

(Q) Look at this compound and give its reported Activity. Cc1cc(Nc2ccccc2C(F)(F)F)n2nc(C)cc2n1
(A) 94

(Q) Look at this compound and give its reported Activity. Cc1cc2nc(C(F)(F)F)cc(Nc3ccccc3)n2n1
(A) 77
